// provenance: the supplement of paper PMC9112550

# Test system: Escherichia coli TOP10;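 further: peptides expressed intracellularly from a pBAD plasmid library in pooled LB shake-flask culture, induced with 0.3% L-arabinose, DNA abundance read by NGS, three biological replicates, DESeq2 with apeglm shrinkage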
# protocol_description: shrunken log2 fold change of peptide-encoding DNA abundance (4.5 h post-induction vs induction); higher = less antimicrobial activity (less host growth inhibition)
# setup_conditions: time post-induction: 4.5 h; library: site-saturation at positions 5, 18, 19, 20
Could you please report measured shrunken log2 fold change for the items listed next?
Give bare numbers.

INSERT INTO results (biopolymer_sequence, endpoint_value) VALUES
  ('RRIRDRPPRLPRPRPRPKLCPRP', -0.0785),
  ('RRIRMRPPRLPRPRPRPCVHPRP', 0.0648),
  ('RRIRFRPPRLPRPRPRPSTYPRP', -0.802),
  ('RRIRDRPPRLPRPRPRPLAPPRP', 0.607),
  ('RRIRSRPPRLPRPRPRPGTPPRP', 0.0374),
  ('RRIRKRPPRLPRPRPRPERMPRP', 0.0818),
  ('RRIRSRPPRLPRPRPRPIWWPRP', 0.361),
  ('RRIRRRPPRLPRPRPRPVWMPRP', 0.561);

Batch: shrunken log2 fold change for all items listed.
1. RRIRNRPPRLPRPRPRPGVKPRP
2. RRIRQRPPRLPRPRPRPRACPRP
3. RRIRVRPPRLPRPRPRPKFIPRP
4. RRIRARPPRLPRPRPRPTHSPRP
5. RRIRRRPPRLPRPRPRPIEPPRP
6. RRIRFRPPRLPRPRPRPRRIPRP
7. RRIRERPPRLPRPRPRPWYTPRP
8. RRIRCRPPRLPRPRPRPFYAPRP

1: -0.117; 2: 0.344; 3: -0.286; 4: 0.459; 5: -0.015; 6: -0.116; 7: 3.82; 8: -0.813

Batch: shrunken log2 fold change for all items listed.
1. RRIRPRPPRLPRPRPRPCHAPRP
2. RRIRYRPPRLPRPRPRPYKFPRP
3. RRIRLRPPRLPRPRPRPVHTPRP
4. RRIRQRPPRLPRPRPRPMTSPRP
5. RRIRYRPPRLPRPRPRPQQNPRP

1. -0.242
2. -0.0196
3. -0.0875
4. -0.000946
5. -0.421
